# tgt: human PPARγ (Homo sapiens, UniProt P37231)
# Sequence (P37231 235-505 limits assumed): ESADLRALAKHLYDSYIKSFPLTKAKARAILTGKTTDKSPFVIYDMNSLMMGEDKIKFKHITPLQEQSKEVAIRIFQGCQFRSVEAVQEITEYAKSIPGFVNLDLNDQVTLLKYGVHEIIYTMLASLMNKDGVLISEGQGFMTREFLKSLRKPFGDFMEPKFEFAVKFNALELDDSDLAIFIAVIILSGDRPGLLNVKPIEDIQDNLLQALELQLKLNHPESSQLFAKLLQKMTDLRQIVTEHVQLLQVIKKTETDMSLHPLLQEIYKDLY
# measurement_protocol: Membrane-bound PPARγ binding assay ([3H]rosiglitazone competition, filtration)
# settings: competition with [3H]rosiglitazone (4 nM), 180 min at 4 °C; read-out: Ki (nM), hPPARγ binding affinity
quantity_measured: Ki (nM)
Provide only the numeric value, understood in nM.

> print(dat)
                                   molecule                                       tgt  unit.of.measure  assay.value
1  CCOC(Cc1ccc(OCCn2c(=O)sc3ccc(C(=O)c4ccccc4)cc32)cc1)C(=O)O (stereo not shown)  human PPARγ (Homo sapiens, UniProt P37231)               nM            8

# return recorded Ki for entry CON=C(c1ccccc1)c1ccc2c(c1)sc(=O)n2CCOc1ccc(C[C@@H](OCC(F)(F)F)C(=O)O)cc1 [Compound 46b] 33

# return recorded Ki for entry CCOC(Cc1ccc(OCCn2c(=O)sc3cc(/C(=N/OC)c4ccccc4)ccc32)cc1)C(=O)O (stereo not shown) [Compound 40a] 4

# return recorded Ki for entry O=C(O)C(Cc1ccc(OCCn2c(=O)sc3cc(C(=NO)c4ccccc4)ccc32)cc1)OCC(F)(F)F (mixture of isomers) [Compound 39b] 165

# return recorded Ki for entry CON=C(c1ccccc1)c1ccc2c(c1)sc(=O)n2CCOc1ccc(C[C@H](OCC(F)(F)F)C(=O)O)cc1 [Compound 44b] 3

# return recorded Ki for entry CON=C(c1ccccc1)c1ccc2c(c1)sc(=O)n2CCOc1ccc(CC(OCC(F)(F)F)C(=O)O)cc1 (racemic) [Compound 40b] 1.3

# return recorded Ki for entry CCOC(Cc1ccc(OCCN2C(=O)C(F)(F)c3cc(C(=O)c4ccccc4)ccc32)cc1)C(=O)O (stereo not shown) 4
